Where do the numbers come from? From paper PMC7181320.

target: Y167F N-His6-FhuD2 (Staphylococcus aureus, UniProt Q7BGA5, Y191F); assay: Intrinsic Trp fluorescence quenching binding assay, FhuD2 mutant Y167F; parameters: species or system S. aureus; conditions: read-out: app Kd; FhuD2 variant Y167F
Result Type: pKd
API: returns pKd as number; meaning -log10 of concentration in mol/L.

Specify measured pKd for CC(=O)N([O-])CCCCCNC(=O)CCC(=O)N([O-])CCCCCNC(=O)CCC(=O)N([O-])CCCCCN.[Fe+3] .
7.40

* * *

Target chain: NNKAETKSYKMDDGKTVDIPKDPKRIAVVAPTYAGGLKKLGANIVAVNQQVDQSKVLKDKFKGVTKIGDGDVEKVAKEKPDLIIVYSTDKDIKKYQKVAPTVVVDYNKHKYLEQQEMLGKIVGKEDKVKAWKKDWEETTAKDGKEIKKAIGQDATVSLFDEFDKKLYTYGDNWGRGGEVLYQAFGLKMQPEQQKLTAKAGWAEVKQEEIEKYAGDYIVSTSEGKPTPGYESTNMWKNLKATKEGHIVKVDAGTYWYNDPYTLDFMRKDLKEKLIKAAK
Result Type: Kd (nM)
Your answer is read as nM, so omit the unit and give the number.

Specify measured Kd for CC(=O)N(O)CCCCCNC(=O)CCC(=O)N(O)CCCCCNC(=O)CCC(=O)N(O)CCCCCN .
90
